B1: HDV Ribozyme (parent)
chain: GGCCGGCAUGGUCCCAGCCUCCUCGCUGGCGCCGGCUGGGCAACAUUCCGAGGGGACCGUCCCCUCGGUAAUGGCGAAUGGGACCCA

Variants of: B1
run description: self-cleavage, relative activity (ratio to wild type); higher = more cleavage; co-transcriptional

entry sequence	self-cleavage
GGCCGGCAUGGUCCCAGCCUCCUCGCUGGCGCCGGCUGGGCAACAUUCCGAGGGGACCGUCCCCUCGGUAAUGUCGAAUAGGACCCA [G74U G80A]	0.0845
GGCCGGCAUGGUCCCAGCCUCCCCGCUGGCGCCGGCUGGGCAACAUUCCGAGGGGGCCGUCCCCUCGGUAAUGGCGAAUGGGACCCA [U23C A56G]	0.87
GGCCGGCAUGGCCCCAGCCUCCUCGCUGGCGCCGGCUAGGCAACAUUCCGAGGGGACCGUCCCCUCGGUAAUGGCGAAUGGGACCCA [U12C G38A]	0.0875
GGCCGGCAUGGUCCCAGCGUCCUCGCUGGCGCCGGCUGGGCAACAUUCCGAGGGGACCGUCCCCUCGGUAAUGGCGGAUGGGACCCA [C19G A77G]	0.0426
GGCCGGCAUGGGCCCAGCCUCCUCGCUGGCGCCGGCUGGGCAACAUUCCGAGGGGACCGUCCCCUCGGUAAUGGCGAAUUGGACCCA [U12G G80U]	0.534
GGCCGGCAUGGUCCCAGCCUCCUCGCUGGCGCCGGCUGGGCAACAUUCCGAGGGGACCGUCCCCUCGGUAAUAUCGAAUGGGACCCA [G73A G74U]	0.174
GGCCGGCAUGCUCCCAGCCUCCUCGCUGGCGCCGGCUGGGCAACAUUCCGAGGGGACCGACCCCUCGGUAAUGGCGAAUGGGACCCA [G11C U60A]	0.0831
GGCCGGCAUGGCCCCAGCCUCCUCGCUGGCGCCGGCUGGGCAACAUUCCGAGGGGACCGUCCCCUCGGUAAUGGCGAAUGGGACACA [U12C C85A]	0.185
GGCCGGCAUGGUCCCAGCCUCCUCGCUGGCGCCAGCUGGGCAACCUUCCGAGGGGACCGUCCCCUCGGUAAUGGCGAAUGGGACCCA [G34A A45C]	0.299
GGCCGGCAUGGUCCCAGCCUCCGCGCUGGCGCCGGCUAGGCAACAUUCCGAGGGGACCGUCCCCUCGGUAAUGGCGAAUGGGACCCA [U23G G38A]	0.0923
GGCCGGCAUGGUCCCACCCUCCUCGCUGGCGCCGGCUGGGCAACAUUCCGAGGGGACCGUCCCCUCGGUAAUGGCGAAUGGUACCCA [G17C G82U]	0
GGCCGGCAUGGUCCCAGCCUCCUCGCUGCCGCCGGCUGGGAAACAUUCCGAGGGGACCGUCCCCUCGGUAAUGGCGAAUGGGACCCA [G29C C41A]	0
GGCCGUCAUGGUCCCAGCCUCCUCGCAGGCGCCGGCUGGGCAACAUUCCGAGGGGACCGUCCCCUCGGUAAUGGCGAAUGGGACCCA [G6U U27A]	0.453
GGCCGUCAUGGUCCCAGCCUCCUCGCUGGCGCCGGCUGGGCAACAUUCCGAGGGGACCGUCCCCUCGGGAAUGGCGAAUGGGACCCA [G6U U69G]	0.375
GGCCGGCAUGGUCCCAGCCUCCUCGCUGGCGCCGGCUGGGCAACAUUCCGAGGGGAGCGUCCCCUCGGGAAUGGCGAAUGGGACCCA [C57G U69G]	1.2
GGCCGGCAUGGUCCCAGCCUCCUCCCUAGCGCCGGCUGGGCAACAUUCCGAGGGGACCGUCCCCUCGGUAAUGGCGAAUGGGACCCA [G25C G28A]	0.0297
GGCCGGCACGGUCCCAGCCUCCUCGCUGGCGCCGGCUGGGCAACAUUCCGAGGGGACCGUCCCCUCGGUAAUGGCGAAUGGGACUCA [U9C C85U]	1.07
GGCCGGCAUGGUCCCAGCGUCCUCGCUGGCGCCGGCUGGGCAACAUUCCGAGGGGACCGUCCCCUCGGUAAUGCCGAAUGGGACCCA [C19G G74C]	0.0665
GGCCGGCAUGGUCGCAGCCUCCUCGCUGGCGCCGGCUGGGCAACAUUGCGAGGGGACCGUCCCCUCGGUAAUGGCGAAUGGGACCCA [C14G C48G]	0.332
GGCCGGCAUGGUCCCAGCCUCCUCGCUGGCGCCAGCUGGGCAACAUCCCGAGGGGACCGUCCCCUCGGUAAUGGCGAAUGGGACCCA [G34A U47C]	0
GGCCGGCAUGGUCCCAGCCCCCUCGCUGGCGCCGGCUGGGCAACAUUCCGAGAGGACCGUCCCCUCGGUAAUGGCGAAUGGGACCCA [U20C G53A]	0.122
GGCCGGCAUGGUCCCAUCCUCCCCGCUGGCGCCGGCUGGGCAACAUUCCGAGGGGACCGUCCCCUCGGUAAUGGCGAAUGGGACCCA [G17U U23C]	0.219
